These data points were gathered from ChEMBL document CHEMBL4513216.

- Assay remarks: Toxicity liver stage against HepG2, at 10uM
- Type: cell-based
- Set-up: test concentration 10 uM, cell line HepG2-A16-CD81EGFP
- Measurement context: human, HepG2-A16-CD81EGFP cells; read-out: INHIBITION

Compound: COc1ccc(C)cc1CN(C)CC(=O)NC1(C)CCS(=O)(=O)C1 (stereo unspecified)
Unit annotation: %
cytotoxicity at 10 µM: 1.28

Compound: COc1ccc(CCn2cnnc2[S+](C)[O-])cc1 (stereo unspecified)
Unit annotation: %
cytotoxicity at 10 µM: 3.4

Compound: Cc1ccc(CN2CCc3nnc(CN4CCCC4=O)n3CC2)o1
Unit annotation: %
cytotoxicity at 10 µM: -4.28

Compound: Cc1nccn1C1CCCN(C(=O)c2ccc(N3CCCC3)nn2)C1 (stereo unspecified)
Unit annotation: %
cytotoxicity at 10 µM: -11.2

Compound: Cc1ccc(C(N)=O)cc1NCCOc1cccc(C#N)c1
Unit annotation: %
cytotoxicity at 10 µM: 2.87

Compound: CC(C)N(C)[C@@H]1CCN(c2ncccn2)[C@H]1Cc1ccncc1
Unit annotation: %
cytotoxicity at 10 µM: -3.42

Compound: CSc1ccc(NCC(=O)NCC2CC2)cc1F
Unit annotation: %
cytotoxicity at 10 µM: 0.936

Compound: CCCn1ncc(C(=O)N2CCN(C3Cc4ccccc4C3)CC2)c1C
Unit annotation: %
cytotoxicity at 10 µM: -139

Compound: COc1cc(CN(C)C(=O)NCc2cccnc2OC)ccc1SC
Unit annotation: %
cytotoxicity at 10 µM: -8.82

Compound: COc1cccc(CN2CC[C@H](c3nnc(C)o3)C2)c1
Unit annotation: %
cytotoxicity at 10 µM: -0.902

Compound: O=C(NCc1ccccn1)[C@H]1COC[C@H]2CN(c3ncccn3)C[C@H]21
Unit annotation: %
cytotoxicity at 10 µM: 9.19
